# Target system: AMP-activated protein kinase, AMPK (Homo sapiens) (UniProt P54646+O43741+P54619+Q9UGJ0+Q9Y478+Q13131+Q9UGI9)
# Assay remarks: AMP-dependent Kinase enzyme assay. An in vitro enzyme assay that detects ADP turnover that is directly proportional to AMPK activity. This uses naive AMPK that is activated during the assay with MK-8722
# Format: functional
# Parameters: scale not given: direction of the effect not stated beside the values
# Assay conditions: 30 µM
// reported Percent Effect per item

| Compound | Percent Effect (%) |
| --- | --- |
| CC(c1nc(C2CC2)no1)N1CCN(CCOCC(F)(F)F)CC1 (configuration not stated) | -7.35 |
| NC(=O)c1cc(C2CCCN(C(=O)CCc3ccsc3)C2)n[nH]1 (configuration not stated) | 5.08 |
| CC(C)N(C)Cc1nnc2n1CCN(Cc1ccncc1)CC2 | 2.82 |
| CC(Cc1ccco1)NC(=O)Nc1cnn(CC(N)=O)c1 (configuration not stated) | 5.31 |
| Cc1cc(C[C@@H]2COC[C@@H]2NC(=O)CN2CCCC2)on1 | 1.08 |
| O=C(CCNC(=O)c1ccoc1)NCc1ccccc1F | 3.8 |
| Cc1csc(C2CCCN(C(=O)c3ccc(=O)n(C)n3)C2)n1 (configuration not stated) | -1.05 |
| CC(=O)N(Cc1noc(C)n1)C1CCN(Cc2ccon2)C1 (configuration not stated) | -1.98 |
| N#Cc1ccc(N2CCCN(C(=O)CC3CCCO3)CC2)cc1 (configuration not stated) | 7.34 |
| O=C(N1CCCC1)N1CCO[C@H]2[C@@H](Oc3ccccn3)CC[C@@H]21 | 13.9 |
| CCCSCC(=O)Nc1ncn(CC(=O)NCc2ccccc2)n1 | -1.58 |
| Cc1cc(CN2CCCC2c2noc(C3CC3)n2)c2ccccc2n1 (configuration not stated) | -1.25 |
